The following compounds each carry a recorded Ki for PIK3CG (human) (UniProt P48736).

Example cases with answers are listed next.
COc1cncc(-c2cc(C)c3c(n2)[C@@H](C)N(c2ccn(C[C@H](C)O)n2)C3=O)c1 < 100 nM
COc1cncc(-c2cc(C)c3c(n2)C2(CN(C(=O)OC(C)(C)C)C2)N(c2cnn(CC(F)(F)F)c2)C3=O)c1 < 100 nM

From here, focus on the item given below.
For PIK3CG (human) (UniProt P48736), provide Ki of `CCOc1cncc(-c2cc(C)c3c(n2)CN(c2cnn(CC(F)(F)F)c2)C3=O)c1` please. < 100 nM

* * *

- SYSTEM_TESTED: PIK3CG (human)
pKi: −log10 of the molar value.
Form field: pKi (one value per entry).

COMPOUND	pKi
COc1cc(-c2cc(C)c3c(n2)CN(c2cncc(CN(C)C)c2)C3=O)cnc1OC	> 7.00
COc1cc(-c2cc(C)c3c(n2)CN(c2cccc(C(C)(C)C#N)n2)C3=O)cnc1OC	> 7.00
COc1cc(-c2ccc3c(n2)CN(c2ccnc(OCC(F)F)c2)C3=O)cnc1OC	6.31 to 7.00

API: value(readout= pKi, system= PIK3CG (human), query= `Cc1cc(-c2cncc(CO)c2)nc2c1C(=O)N(c1cc[nH]n1)C2` ) 6.31 to 7.00

Notebook entry, PIK3CG (human) assay: pKi of `CCOc1ccc(N2Cc3nc(-c4cnc(OC)c(OC)c4)ccc3C2=O)cn1` = ? 6.31 to 7.00

Form field: pKi recorded for COc1ncc(-c2cc(C)c3c(n2)CN(c2cnn(CC(F)(F)F)c2)C3=O)cc1OCC1CCCCO1 (stereo not given) with PIK3CG (human) (enter value) > 7.00

API: value(readout= pKi, system= PIK3CG (human), query= `COc1cc(-c2ccc3c(n2)CN(c2cnn(CC#N)c2)C3=O)cnc1OC` ) > 7.00

* * *

# PIK3CG (human): pKi values follow
pKi: −log10 of the molar value.

Consider the reported pKi for these molecules:
MOLECULE	pKi
COc1cc(-c2ccc3c(n2)C(C)N(c2cn(CC(F)(F)F)cn2)C3=O)cnc1OC (stereo not given)	> 7.00
COc1cc(-c2cc(C)c3c(n2)CN(c2nc(CO)cs2)C3=O)cnc1OC	> 7.00
COCn1cc(N2Cc3cc(-c4cnc(OC)c(OC)c4)ccc3C2=O)cn1	> 7.00
CCNC(=O)c1cc(-c2cc(C)c3c(n2)C(C)(C)N(c2cnn(CC(F)F)c2)C3=O)cnc1OC	> 7.00
CCOCCOc1ncc(-c2cc(C)c3c(n2)CN(c2cnn(CC(F)(F)F)c2)C3=O)cc1OC	6.31 to 7.00
CCNC(=O)c1cncc(-c2cc(C)c3c(n2)CN(c2ccn([C@H]4CCOC4)n2)C3=O)c1	6.31 to 7.00
COc1cc(-c2ccc3c(n2)CN(c2cncc(C#CCO)c2)C3=O)cnc1OC	6.31 to 7.00
CCn1cc(N2C(=O)c3ccc(-c4cnc(OC)c(OC(F)F)c4)nc3[C@H]2C)cn1	> 7.00

Look at this molecule and give its reported pKi. CCOc1cncc(-c2cc(C)c3c(n2)C(C)(OC)N(c2cnn(CC(F)(F)F)c2)C3=O)c1 (stereo not given) > 7.00

Fill in: pKi of `COc1ncc(-c2ccc3c(n2)CN(c2cnn(CC#N)c2)C3=O)c(OC)n1` is ___ 6.31 to 7.00
